Source listed as patent US7598234B2.

Catalogue of MIC readings, one per entry.
Tested on: Salmonella typhimurium ATCC 14028
Protocol summary: MIC and MBC measurement with Salmonella typhimurium ATCC 14028
Assay type: cell-based
Condition set: Table 10
Experimental: General: Microorganisms. Reference strains were purchased from the American Type Culture Collection (Rockville, Md.) or Bactrol disks from Difeo Laboratories (Detroit, Mich.). […] Aliquots of 1 mL of the suspension were added to test tubes containing 1 mL TSB and incrementally varied concentrations of cholic acid derivatives and/or erythromycin or novobiocin. […] Sample turbidity was determined by measuring absorption at 760 nm (HP 8453 UV-Visible Chemstation, Hewlett Packard). […]
Readout label: MIC (µg/mL)

CCCOCCC[C@@H](C)[C@H]1CC[C@H]2[C@@H]3[C@H](OCCCN)C[C@@H]4C[C@H](OCCCN)CC[C@]4(C)[C@H]3C[C@H](OCCCN)[C@]12C [Compound 112] = 86
C[C@H](CCCN(C)Cc1ccccc1)[C@H]1CC[C@H]2[C@@H]3[C@H](OCCCN)C[C@@H]4C[C@H](OCCCN)CC[C@]4(C)[C@H]3C[C@H](OCCCN)[C@]12C [Compound 2] = 13

###

Tested on: E. coli (ATCC 25922)
Protocol summary: MIC and MBC measurement with E. coli (ATCC 25922)
Format: cell-based, Escherichia coli
Condition set: Table 4; E. coli (ATCC 25922)
Entries and their MBC
Readout label: MBC (µg/mL)

C[C@H](CCCN(C)Cc1ccccc1)[C@H]1CC[C@H]2[C@@H]3[C@H](OCCN)C[C@@H]4C[C@H](OCCN)CC[C@]4(C)[C@H]3C[C@H](OCCN)[C@]12C [Compound 1] = 40
C[C@H](CCCN(C)Cc1ccccc1)[C@H]1CC[C@H]2[C@@H]3[C@H](OCCNC(=N)N)C[C@@H]4C[C@H](OCCNC(=N)N)CC[C@]4(C)[C@H]3C[C@H](OCCNC(=N)N)[C@]12C [Compound 4] = 9
C[C@H](CCCN(C)Cc1ccccc1)[C@H]1CC[C@H]2[C@@H]3[C@H](OCCCN)C[C@@H]4C[C@H](OCCCN)CC[C@]4(C)[C@H]3C[C@H](OCCCN)[C@]12C [Compound 2] = 20
C[C@H](CCCN(C)Cc1ccccc1)[C@H]1CC[C@H]2[C@@H]3[C@H](OCCCNC(=N)N)C[C@@H]4C[C@H](OCCCNC(=N)N)CC[C@]4(C)[C@H]3C[C@H](OCCCNC(=N)N)[C@]12C [Compound 5] = 4

###

System: Pseudomonas aeruginosa (ATCC 27853)
Protocol summary: MIC and MBC measurement with Pseudomonas aeruginosa (ATCC 27853)
Assay type: cell-based
Condition set: Table 6; P. aureginosa (ATCC 27853)
Experimental: General: Microorganisms. Reference strains were purchased from the American Type Culture Collection (Rockville, Md.) or Bactrol disks from Difeo Laboratories (Detroit, Mich.). […] Aliquots of 1 mL of the suspension were added to test tubes containing 1 mL TSB and incrementally varied concentrations of cholic acid derivatives and/or erythromycin or novobiocin. […] Sample turbidity was determined by measuring absorption at 760 nm (HP 8453 UV-Visible Chemstation, Hewlett Packard). […]
Readout label: MIC (µg/mL)

C[C@H](CCCN(C)Cc1ccccc1)[C@H]1CC[C@H]2[C@@H]3[C@H](OCCCNC(=N)N)C[C@@H]4C[C@H](OCCCNC(=N)N)CC[C@]4(C)[C@H]3C[C@H](OCCCNC(=N)N)[C@]12C = 6
CCCCCCCCOCCC[C@@H](C)[C@H]1CC[C@H]2[C@@H]3[C@H](OCCCN)C[C@@H]4C[C@H](OCCCN)CC[C@]4(C)[C@H]3C[C@H](OCCCN)[C@]12C = 8
C[C@H](CCCN(C)Cc1ccccc1)[C@H]1CC[C@H]2[C@@H]3[C@H](OCCN)C[C@@H]4C[C@@H](OCCN)CC[C@]4(C)[C@H]3C[C@H](OCCN)[C@]12C = 50
